Test system: CD2F1 mice, L1210 leukemia ip, survival T/C
assayDetails: NCI In Vivo Anticancer Drug Screen. Data for tumor model L1210 Leukemia (intraperitoneal) in CD2F1 (CDF1) mice
conditionsUsed: endpoint: mean survival time; dose: 150.0 mg/kg/injection; schedule: Q01DX001 (ip); vehicle: saline; higher = longer survival
Inconclusive results and toxic doses are left out.
quantity: T/C

*Q* Any idea what T/C was measured for O=c1c2nccnc2nc2n1CCCCC2 ?
*A* 103 % of control

*Q* Any idea what T/C was measured for CN(CCN1CCCCC1)C(=O)C(O)(c1ccccc1)c1ccccc1 ?
*A* 98 % of control

*Q* Any idea what T/C was measured for CN1C2CCC1CC(OC(=O)/C=C/C(=O)OC1CC3CCC(C1)N3C)C2 (stereo unspecified) ?
*A* 106 % of control

*Q* Any idea what T/C was measured for COc1ccc(CC(N)C(=O)NC2C(CO)OC(n3cnc4c(N)ncnc43)C2O)cc1 (stereo unspecified) ?
*A* 95 % of control

*Q* Any idea what T/C was measured for O=[N+]([O-])c1ccc(/C=N/O)o1 ?
*A* 100 % of control

*Q* Any idea what T/C was measured for COc1ccc(Cl)cc1C/C=N/N(C)C ?
*A* 105 % of control

---

For each record, write down the corresponding T/C.
Tested on: CD2F1 mice, L1210 leukemia ip, survival T/C
assayDetails: NCI In Vivo Anticancer Drug Screen. Data for tumor model L1210 Leukemia (intraperitoneal) in CD2F1 (CDF1) mice
conditionsUsed: endpoint: mean survival time; dose: 50.0 mg/kg/injection; schedule: Q01DX005 (ip); vehicle: other; higher = longer survival
Toxic doses and inconclusive results are not listed.

*Q* Any idea what T/C was measured for Nc1nc(=S)c2[nH]c(-c3ccccc3)nc2[nH]1 ?
*A* 93 % of control

*Q* Any idea what T/C was measured for CCCCCCC[CH2][Sn]1([CH2]CCCCCCC)[O]C2C(CO)OC(n3ccc(=O)[nH]c3=O)C2[O]1 (stereo unspecified) ?
*A* 91 % of control

*Q* Any idea what T/C was measured for Nc1nc(NCCc2ccccc2)c2ncn(C3OC(CO)C(O)C3O)c2n1 (stereo unspecified) ?
*A* 104 % of control

*Q* Any idea what T/C was measured for CNC(=O)c1nc2c(nc1NC)n(C)c(=O)n2C ?
*A* 95 % of control

*Q* Any idea what T/C was measured for N#CC1=C(NC2OCC(O)C(O)C2O)CCC1 (stereo unspecified) ?
*A* 98 % of control

*Q* Any idea what T/C was measured for CC1(C)OC2C(CO)OC(NC3=C(C#N)CCCC3)C2O1 (stereo unspecified) ?
*A* 103 % of control

---

For each record, write down the corresponding T/C.
Test system: CD2F1 mice, L1210 leukemia ip, survival T/C
assayDetails: NCI In Vivo Anticancer Drug Screen. Data for tumor model L1210 Leukemia (intraperitoneal) in CD2F1 (CDF1) mice
conditionsUsed: endpoint: mean survival time; dose: 3.13 mg/kg/injection; schedule: Q01DX009 (ip); vehicle: saline; higher = longer survival
Toxic doses and inconclusive results are not listed.

*Q* Any idea what T/C was measured for CS(=O)(=O)C(Br)S(C)(=O)=O ?
*A* 102 % of control

*Q* Any idea what T/C was measured for CC(Oc1ccc(Cl)cc1)C(/C=N/N=C(N)N)=N/N=C(N)N (centres undefined) ?
*A* 98 % of control

*Q* Any idea what T/C was measured for CC(=O)OC1C(CO)OC2C1Oc1nc(=N)c(F)cn12 (centres undefined) ?
*A* 101 % of control

*Q* Any idea what T/C was measured for [Cl][Pt]([Cl])([Cl])[Cl] ?
*A* 100 % of control

---

Tested on: CD2F1 mice, L1210 leukemia ip, survival T/C
assayDetails: NCI In Vivo Anticancer Drug Screen. Data for tumor model L1210 Leukemia (intraperitoneal) in CD2F1 (CDF1) mice
conditionsUsed: endpoint: median survival time; dose: 100.0 mg/kg/injection; schedule: Q01DX005 (ip); vehicle: saline; higher = longer survival
Toxic doses and inconclusive results are not listed.
For each record, write down the corresponding T/C.

*Q* Request body: readout T/C, system CD2F1 mice, L1210 leukemia ip, survival T/C, query Cn1c(=O)[nH]cc(C2OC(CO)C(O)C2O)c1=O (centres undefined) . Return the value.
*A* 100 % of control

*Q* Request body: readout T/C, system CD2F1 mice, L1210 leukemia ip, survival T/C, query COc1ccc(-n2cnc3c(cnn3C3OC(CO)C(O)C3O)c2=O)cc1 (centres undefined) . Return the value.
*A* 105 % of control

*Q* Request body: readout T/C, system CD2F1 mice, L1210 leukemia ip, survival T/C, query CC(=O)OCC1OC(c2nn(C(C)=O)c(C(N)=O)c2O)C(OC(C)=O)C1OC(C)=O (centres undefined) . Return the value.
*A* 96 % of control

*Q* Request body: readout T/C, system CD2F1 mice, L1210 leukemia ip, survival T/C, query CNc1ccn(C2OC(CO)C(O)C2SC(C)(C)C)c(=O)n1 (centres undefined) . Return the value.
*A* 102 % of control

---

System: CD2F1 mice, L1210 leukemia ip, survival T/C
assayDetails: NCI In Vivo Anticancer Drug Screen. Data for tumor model L1210 Leukemia (intraperitoneal) in CD2F1 (CDF1) mice
conditionsUsed: endpoint: mean survival time; dose: 400.0 mg/kg/injection; schedule: Q01DX001 (ip); vehicle: saline with Tween-80; higher = longer survival
Toxic doses and inconclusive results are not listed. Non-standard residues stand in square brackets, D forms with d. Residues, ends and D or L forms follow the SMILES beside them. ξ: configuration not given here. *: point of attachment. Bz = O=C(c1ccccc1)*; Bn = c1ccc(C*)cc1; ξC = NC(CS)C(=O)O
quantity: T/C

*Q* Any idea what T/C was measured for Cc1cccc(Oc2ccc(C(F)(F)F)cc2[N+](=O)[O-])c1 ?
*A* 91 % of control

*Q* Any idea what T/C was measured for NS(=O)(=O)c1ccc(NC(=O)Oc2ccc([N+](=O)[O-])cc2)cc1 ?
*A* 101 % of control

*Q* Any idea what T/C was measured for O=C(/C=C(/Nc1ccccc1)c1ccccc1)c1ccccc1 ?
*A* 86 % of control

*Q* Any idea what T/C was measured for CC(=O)Nc1ccccc1[N+](=O)[O-] ?
*A* 103 % of control

*Q* Any idea what T/C was measured for CC(C)N(CCNc1nc(C(Cl)(Cl)Cl)nc2ccc(Cl)cc12)C(C)C ?
*A* 103 % of control

*Q* Any idea what T/C was measured for COC(=O)C1C2CCC(COC(C)=O)(O2)C1C(=O)O (stereo not given) ?
*A* 88 % of control

*Q* Any idea what T/C was measured for CCOC(=O)C/C(C)=C/c1ccccc1 (tested in a mixture with another compound) ?
*A* 94 % of control

*Q* Any idea what T/C was measured for COC(=O)c1ccc(I)c([N+](=O)[O-])c1 ?
*A* 97 % of control

*Q* Any idea what T/C was measured for CC(CCC(=O)O)C1CCC2C3CCC4CC(O)CCC4(C)C3CC(O)C12C (stereo not given) ?
*A* 92 % of control

*Q* Any idea what T/C was measured for C1CCC(CCCC(CCCC2CCCCC2)CCCC2CCCCC2)CC1 ?
*A* 88 % of control

*Q* Any idea what T/C was measured for CCOC(=O)C(C)(C)Oc1ccc(Cl)cc1 ?
*A* 94 % of control

*Q* Any idea what T/C was measured for O=C1CC(=O)C(CCc2cccc3ccccc23)C1=O (stereo not given) ?
*A* 105 % of control

*Q* Any idea what T/C was measured for CC(C)(C)OC1C2C=CC1C=C2 (stereo not given) ?
*A* 88 % of control

*Q* Any idea what T/C was measured for CCC1(C)C(=O)c2ccccc2N(C)C1=O (stereo not given) ?
*A* 95 % of control

*Q* Any idea what T/C was measured for COC(=O)C(CSCc1ccccc1)NC(=O)CNC(=O)c1ccccc1 (stereo not given) (Bz-Gly-[ξC](Bn)-OMe) ?
*A* 97 % of control

---

Tested on: CD2F1 mice, L1210 leukemia ip, survival T/C
assayDetails: NCI In Vivo Anticancer Drug Screen. Data for tumor model L1210 Leukemia (intraperitoneal) in CD2F1 (CDF1) mice
conditionsUsed: endpoint: mean survival time; dose: 25.0 mg/kg/injection; schedule: Q01DX005 (ip); vehicle: water; higher = longer survival
Inconclusive results and toxic doses are left out.
For each record, write down the corresponding T/C.

*Q* Any idea what T/C was measured for Nc1ncnc2cc3c(cc12)ncn3C1OC(CO)C(O)C1O (configuration not stated) ?
*A* 104 % of control

*Q* Any idea what T/C was measured for CSCc1cn(C2CC(O)C(CO)O2)c(=O)[nH]c1=O (configuration not stated) ?
*A* 98 % of control

*Q* Any idea what T/C was measured for CC(=O)OCC1OC(N(C(C)=O)c2nc(Cl)c3cc[nH]c3n2)C(OC(C)=O)C1OC(C)=O (configuration not stated) ?
*A* 101 % of control

*Q* Any idea what T/C was measured for CCN(CC)Cc1cn(C2CC(O)C(CO)O2)c(=O)[nH]c1=O (configuration not stated) ?
*A* 104 % of control

*Q* Any idea what T/C was measured for CN(C)c1ncnc2c1cnn2C1OC(CO)C(O)C1O (configuration not stated) ?
*A* 90 % of control

*Q* Any idea what T/C was measured for CN1CCN(c2ncnc3c2ncn3C2OC(CO)C(O)C2O)CC1 (configuration not stated) ?
*A* 106 % of control

*Q* Any idea what T/C was measured for Nc1nc(N2CCCCC2)c2ncn(C3OC(CO)C(O)C3O)c2n1 (configuration not stated) ?
*A* 101 % of control
